- System Under Test: recombinant human 5-HT4 receptor (Homo sapiens, UniProt Q13639)
- Sequence (Q13639 whole entry): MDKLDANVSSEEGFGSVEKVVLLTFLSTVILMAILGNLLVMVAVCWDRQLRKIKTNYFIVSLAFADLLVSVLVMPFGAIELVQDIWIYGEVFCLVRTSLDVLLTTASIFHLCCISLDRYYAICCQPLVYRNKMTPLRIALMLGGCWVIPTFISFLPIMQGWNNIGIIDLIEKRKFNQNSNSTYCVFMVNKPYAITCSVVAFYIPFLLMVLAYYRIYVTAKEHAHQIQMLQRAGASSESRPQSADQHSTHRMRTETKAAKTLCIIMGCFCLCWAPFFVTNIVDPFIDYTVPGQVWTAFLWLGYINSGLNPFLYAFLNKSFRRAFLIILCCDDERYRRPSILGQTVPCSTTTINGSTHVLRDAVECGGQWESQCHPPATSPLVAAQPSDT
- Experimental Details: Determination of EC50 values for 5-HT4 receptor (CHO cells, pCRE-Luc reporter)
- Recorded Conditions: luciferase reporter, 4 hours incubation, read-out: 5-HT4 receptor agonistic binding in-vitro EC50
pEC50: −log10 of the molar value. Structures can show the parent of a compound that is named as a salt.
Parameter: pEC50

Entry COC(=O)N1CCC(N2CC3C(CNC(=O)c4cc(Cl)c(N)c5c4OCC5)C3C2)CC1 (stereo not shown) [Example 24] , system recombinant human 5-HT4 receptor (Homo sapiens, UniProt Q13639): what pEC50 was measured? 8.00 to 8.29

Item: Nc1c(Cl)cc(C(=O)NCC2C3CN(C4CCOCC4)CC23)c2occc12 (stereo not shown) [Example 15, oxalate] 7.70 to 8.00

Continue with CC(C)(O)CN1CC2C(CNC(=O)c3cc(Cl)c(N)c4c3OCCC4)C2C1 (stereo not shown) [Example 37] 8.30 to 8.96

Quick one: COCCCN1CC2C(CNC(=O)c3cc(Cl)c(N)c4ccoc34)C2C1 (stereo not shown) [Example 63, hydrochloride] 8.00 to 8.29
